Attribution: patent US20060257938A1

- ASSAY TEXT: Probe fluorescence ratio response to arachidonic acid relative to ADIFAB2
- Type: binding
- CONDITION INFO: arachidonic acid; response relative to ADIFAB2
Quick reference for DR/DR AA among some molecules

MOLECULE	DR/DR AA
72Y (protein, listed as Rattus norvegicus, PEPTIDE (1)...(131) wild-type rat intestinal fatty acid binding protein) AFDGTWKVDRNENYEKFMEKMGINVVKRKLGAHDNLKLTITQEGNKFTVKESSNFRNIDVVFELGVDFAYSYADGTELTGTWTMEGNKLVGKFKRVDNGKELIAVREISGNELIQTYTYEGVEAKRIFKKE	0.346
38Q, 72A (protein, listed as Rattus norvegicus, PEPTIDE (1)...(131) wild-type rat intestinal fatty acid binding protein) AFDGTWKVDRNENYEKFMEKMGINVVKRKLGAHDNLKQTITQEGNKFTVKESSNFRNIDVVFELGVDFAYSAADGTELTGTWTMEGNKLVGKFKRVDNGKELIAVREISGNELIQTYTYEGVEAKRIFKKE	1.976
78A, 72A (protein, listed as Rattus norvegicus, PEPTIDE (1)...(131) wild-type rat intestinal fatty acid binding protein) AFDGTWKVDRNENYEKFMEKMGINVVKRKLGAHDNLKLTITQEGNKFTVKESSNFRNIDVVFELGVDFAYSAADGTEATGTWTMEGNKLVGKFKRVDNGKELIAVREISGNELIQTYTYEGVEAKRIFKKE	0.433
